Where do the numbers come from? From patent US9617260B2.

# System under test: Bruton's Tyrosine Kinase (BTK), inactivated state (Homo sapiens (Human), UniProt Q06187)
# Sequence (Q06187 whole entry): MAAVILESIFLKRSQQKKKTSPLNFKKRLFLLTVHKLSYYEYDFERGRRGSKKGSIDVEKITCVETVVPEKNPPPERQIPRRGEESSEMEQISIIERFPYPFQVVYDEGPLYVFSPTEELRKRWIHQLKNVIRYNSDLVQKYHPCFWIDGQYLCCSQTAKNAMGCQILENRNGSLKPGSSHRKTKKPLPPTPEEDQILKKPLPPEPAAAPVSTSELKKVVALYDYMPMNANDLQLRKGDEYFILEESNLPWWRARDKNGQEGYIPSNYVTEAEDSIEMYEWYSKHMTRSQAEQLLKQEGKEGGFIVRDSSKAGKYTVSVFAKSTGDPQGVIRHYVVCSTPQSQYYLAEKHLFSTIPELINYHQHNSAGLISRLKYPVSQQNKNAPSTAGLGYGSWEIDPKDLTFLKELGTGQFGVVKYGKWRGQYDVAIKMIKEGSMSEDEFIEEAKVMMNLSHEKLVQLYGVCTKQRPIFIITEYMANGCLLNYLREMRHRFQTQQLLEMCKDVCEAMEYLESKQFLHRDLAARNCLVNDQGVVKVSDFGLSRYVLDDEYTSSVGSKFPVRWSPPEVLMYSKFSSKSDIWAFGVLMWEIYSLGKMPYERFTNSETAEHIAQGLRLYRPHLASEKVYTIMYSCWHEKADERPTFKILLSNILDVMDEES
# Assay overview: Bruton's Tyrosine Kinase (BTK) Inhibition TR-FRET (Time Resolved FRET) competition assay
# Type: binding
# Conditions used: competition with Kinase Tracer 178 for BTK-Eu; plates incubated 18-24 h at 14° C.
Recorded endpoint: IC50 (nM)

C=CC(=O)N1C=C(c2c[nH]c3ncc(NC(=O)OCc4ccccc4)cc23)CCC1 [Compound 33]	0.6

I = CCC(=O)C(=O)Nc1cccc(-c2c[nH]c3ncc(NC(=O)OC(C)C)cc23)c1 [Compound 8]
II = C=CC(=O)N1CCC(c2c[nH]c3ncc(NC(=O)OCc4ccccc4)cc23)CC1 [Compound 31]
III = CCC(=O)C(=O)N1CC=C(c2c[nH]c3ncc(NC(=O)OCc4cccc(F)c4)cc23)CC1 [Compound 26]
Query block: Order the records so the highest IC50 appears first and the lowest last. Would you mind listing the labels in the order requested?
Result block: III, I, II
